- Test system: isolated rat liver mitochondria
- testDetails: Oxygen consumption, Clark-type oxygen electrode
- Format: biochemical
- assayContext: 0.8 µM
# I-sub, % of control (O2 consumption rate) annotations

Worked examples, 3 molecules total:
1. C=C(c1ccc(C(=O)O)cc1)c1cc2c(cc1C)C(C)(C)CCC2(C)C [Bexarotene, reference compound]; 108 (17.4) % of control
2. O=C(Nc1ccc(Oc2ccc(Cl)cc2)c(Cl)c1)c1cc(I)cc(I)c1O [Rafoxanide, reference compound]; 379 (42.5) % of control
3. O=C1c2ccccc2C(=O)C1C(=O)C(c1ccccc1)c1ccc(Cl)cc1 (stereo not shown); 111 (14.5) % of control

Would you kindly share the measured I-sub, % of control (O2 consumption rate) for CC(C)(C)c1cc([N+](=O)[O-])cc([N+](=O)[O-])c1O ? 486 (63.7) % of control

These data points were gathered from paper PMC6112376.
